- Experimental target: T1, shFcRn (soluble human FcRn) (human, UniProt P55899 24-297; P61769 21-119)
- T1 construct: extracellular domain; Printed only as 'soluble human FcRn'; also called hFcRn (immobilized on a chip)
- T1 sequence (P55899 24-297 limits assumed, chain 1 of 2): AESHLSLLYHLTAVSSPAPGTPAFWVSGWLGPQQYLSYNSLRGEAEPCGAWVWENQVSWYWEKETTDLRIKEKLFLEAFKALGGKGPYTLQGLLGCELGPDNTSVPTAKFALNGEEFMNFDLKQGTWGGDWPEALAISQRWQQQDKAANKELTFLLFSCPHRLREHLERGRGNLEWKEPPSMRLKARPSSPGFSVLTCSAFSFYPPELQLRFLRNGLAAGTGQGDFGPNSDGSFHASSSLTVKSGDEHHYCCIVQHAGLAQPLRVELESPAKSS
- T1 sequence (P61769 21-119 limits assumed, chain 2 of 2): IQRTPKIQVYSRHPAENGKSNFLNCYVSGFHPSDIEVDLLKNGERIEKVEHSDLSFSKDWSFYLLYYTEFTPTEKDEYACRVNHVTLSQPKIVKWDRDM
- Procedure details: SPR, shFcRn immobilized on chip, antibody as analyte, pH 6.0;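 also: kinetics fitted with a 1:1 Langmuir model, association 200 s and dissociation 600 s, samples diluted in PBST, double-referenced signals, values averaged across three shFcRn-coated cells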
Reported endpoint: kon (M⁻¹ s⁻¹)
Unit M⁻¹ s⁻¹ implied. Number only.

Field: example entries. Status: answers known.
{"Binder": "HL161AN variant No. 18 (LC:N25Q, HC:C32S Q82T) (antibody, human IgG1, V domains shown, Variable domains only) VL: SYVLTQPPSVSVAPGQTARITCGGQNIGSTSVHWYQQKPGQAPVLVVHDDSDRPSGIPERFSGSNSGNTATLTISRVEAGDEADYYCQVRDSSSDHVIFGGGTKLTVLGQPKAAPSVTL VH: EVQLLESGGGLVQPGGSLRLSCAASEFTFGSSVMTWVRQAPGKGLEWVSVISGSGGSTYYADSVKGRFTISRDNSKNTLYLTMNSLRAEDTAVYYCAKTPWWLRSPFFDYWGQGTLVTVSS", "Reported endpoint": "kon", "Unit name": "M⁻¹ s⁻¹", "Recorded value": "2.84e+06"}
{"Binder": "HL161AN variant No. 21 (LC:N25Q, HC:C32Y Q82T) (antibody, human IgG1, V domains shown, Variable domains only) VL: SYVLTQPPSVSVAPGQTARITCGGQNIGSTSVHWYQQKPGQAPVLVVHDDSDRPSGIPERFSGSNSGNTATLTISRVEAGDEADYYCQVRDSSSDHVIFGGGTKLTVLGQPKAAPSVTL VH: EVQLLESGGGLVQPGGSLRLSCAASEFTFGSYVMTWVRQAPGKGLEWVSVISGSGGSTYYADSVKGRFTISRDNSKNTLYLTMNSLRAEDTAVYYCAKTPWWLRSPFFDYWGQGTLVTVSS", "Reported endpoint": "kon", "Unit name": "M⁻¹ s⁻¹", "Recorded value": "2.67e+06"}

Now consider a different binder.
Query: // returns reported kon for input HL161AN variant No. 16 (LC:N25Q, HC:Q82E) (antibody, human IgG1, V domains shown, Variable domains only) VL: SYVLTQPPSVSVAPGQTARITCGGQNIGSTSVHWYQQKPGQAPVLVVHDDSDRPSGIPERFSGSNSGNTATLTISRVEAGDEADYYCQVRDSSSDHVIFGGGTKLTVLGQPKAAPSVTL VH: EVQLLESGGGLVQPGGSLRLSCAASEFTFGSCVMTWVRQAPGKGLEWVSVISGSGGSTYYADSVKGRFTISRDNSKNTLYLEMNSLRAEDTAVYYCAKTPWWLRSPFFDYWGQGTLVTVSS
Response: 2.05e+06

Taken from patent US20230391876A1.
